Data credit: ChEMBL document CHEMBL3988442

Test system: Mycobacterium tuberculosis
experiment notes: Cornell - Phenotypic assay to identify agents that inhibit growth of Mycobacterium tuberculosis
Format: functional
Design: scale not given: direction of the effect not stated beside the values
study conditions: 10 mM as filed; unlikely as a test dose
Among all 53,000 compounds or so, about 900 (1.7%) showed an effect of 50% or more. This excerpt belongs to a sample that is enriched for strong results.
value kind: Percent Effect (%)
One number for each entry, in %.

Examples with their reported Percent Effect follow.
compound | assayed target | readout unit | Percent Effect
Cc1ccc(S(=O)(=O)Nc2cccnc2O)cc1C | Mycobacterium tuberculosis | % | -38.51
CCCn1nnnc1CN(c1ccc(N2CCOCC2)cc1)C(C)C | Mycobacterium tuberculosis | % | 100.7

Now look at this entry.
Fill blank: measured Percent Effect of the compound CCc1nccn1C1CCCN(C(=O)c2csc(COC)n2)C1 (stereo not drawn) is ____. 19.86

* * *

System: Mycobacterium tuberculosis
experiment notes: Cornell - Phenotypic assay to identify agents that inhibit growth of Mycobacterium tuberculosis
Format: functional
Design: scale not given: direction of the effect not stated beside the values
study conditions: 10 mM as filed; unlikely as a test dose
About 900 (1.7%) of roughly 53,000 compounds showed an effect of 50% or more. Shown is part of a subset that was picked to be rich in strong results.
value kind: Percent Effect
Answers without a unit are incomplete; give the number and then its unit.

# example entries with known answers
compound | assayed target | Percent Effect
O=C(CCc1ccco1)N1CCC(Nc2cccnn2)CC1 | Mycobacterium tuberculosis | -37.65%
Nc1nonc1C(=O)N1Cc2ccccc2OC2(CCOCC2)C1 | Mycobacterium tuberculosis | -22.02%
Cn1cc(NC(=O)C2CC(=O)N(c3n[nH]c4cccc(F)c34)C2)cn1 (stereo not drawn) | Mycobacterium tuberculosis | -30.85%

Please give Percent Effect, item by item, for the list that follows.
1. Cc1cc(CN2CCN(CC3CC3)[C@@H]3CS(=O)(=O)C[C@@H]32)cc(C)c1O
2. Cc1cc(CN2CCN(CC3CC3)[C@@H]3CS(=O)(=O)C[C@@H]32)ccc1F
3. COc1cccc(C2SCC(=O)Nc3ccsc32)c1OC (stereo not drawn)
4. CN(C)CC(=O)N1CC2(CCN(C(=O)Nc3ccccc3)C2)C1.O=C(O)C(F)(F)F
5. CCN1CC(COC(=O)c2ccccc2Cl)CC1=O (stereo not drawn)
6. CCC(C(=O)NCCc1nc(C)cc(C(F)(F)F)n1)n1cccn1 (stereo not drawn)
7. CCN(C)S(=O)(=O)N1CCCC(c2nc(-c3ccccc3)c[nH]2)C1 (stereo not drawn)
8. O=C(NCCc1ccccn1)c1[nH]nc2c1CCCC2

106.4%
-1.418%
25.58%
-36.23%
9.93%
-40.59%
-4.787%
20.26%

Batch of 3 compounds: report Percent Effect for each.
1. CCNC(=O)c1cn2cc(-c3ccccc3Cl)n(CC3CC3)c(=O)c2n1
2. O=C(CCc1cc2n(n1)CCCNC2)NCCS(=O)(=O)N1CCCC1
3. Cc1nnc(NC(=O)c2cc(S(=O)(=O)N3CCSCC3)c[nH]2)s1

1. 93.59%
2. -51.2%
3. -1.205%

Dear colleague, could you send me Percent Effect for each of the items below? Thanks.
1. CCCc1cncnc1N1CCC(NCc2ccc(O)cc2)CC1
2. CCCc1cncnc1N1CCC(NCc2ccncc2)CC1
3. COc1ccc(C2CC(=O)Nc3nc(N4CCOCC4)sc32)cc1 (stereo not drawn)

1. 28.01%
2. -49.68%
3. 22.64%

# Percent Effect lookup, item Cc1nn(C)c2nc(N(C)CCN(C)C3CCCC3)sc12 37.55%
